molecular target: human 5-HT1A receptor subtype (Homo sapiens, UniProt P08908)
Sequence (P08908 whole entry): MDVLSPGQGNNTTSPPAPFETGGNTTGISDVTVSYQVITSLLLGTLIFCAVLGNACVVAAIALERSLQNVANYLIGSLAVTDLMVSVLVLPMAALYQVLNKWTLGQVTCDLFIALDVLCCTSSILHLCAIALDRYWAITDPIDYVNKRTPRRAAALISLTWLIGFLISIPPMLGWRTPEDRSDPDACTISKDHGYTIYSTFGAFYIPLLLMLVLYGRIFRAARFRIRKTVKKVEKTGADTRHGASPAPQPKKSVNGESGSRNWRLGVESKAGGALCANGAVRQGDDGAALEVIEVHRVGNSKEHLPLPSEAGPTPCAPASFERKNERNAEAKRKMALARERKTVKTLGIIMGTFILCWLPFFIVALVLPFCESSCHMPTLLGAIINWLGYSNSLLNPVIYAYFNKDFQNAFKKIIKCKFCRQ
outcome-measure: Ki
Write the quantity with the unit trailing the number.

Answered cases to consult:
molecule: COc1ccc2[nH]cc([C@H]3CC[C@H](N4CCN(c5ccccc5OC)CC4)CC3)c2c1 [Example 20b]
test-result: 14.9 nM
//
molecule: COc1ccccc1C1CCN([C@H]2CC[C@@H](c3c[nH]c4ccc(F)cc43)CC2)CC1 [Example 19a]
test-result: 264 nM

Request: Using the record for Fc1cc2c(c(N3CCN([C@H]4CC[C@H](c5c[nH]c6ccc(F)cc65)CC4)CC3)c1)OCCC2 [Example 31b] , report its Ki.
Response: 32.4 nM

Request: Note, next up: CCCn1cc([C@H]2CC[C@@H](N3CCN(c4cccc5[nH]ccc45)CC3)CC2)c2cc(C#N)ccc21 [Example 14a]
Response: 820 nM

Request: Note, next up: Fc1ccc2[nH]cc([C@H]3CC[C@@H](N4CCN(c5cccc6c5OCCO6)CC4)CC3)c2c1 [Example 24a]
Response: 65.7 nM

Request: Note, next up: Fc1ccc2[nH]cc([C@H]3CC[C@H](N4CCN(c5cccc6c5OCCO6)CC4)CC3)c2c1 [Example 24b]
Response: 11.3 nM

Request: Note, next up: Cn1cc([C@H]2CC[C@@H](N3CCN(c4cccc5[nH]ccc45)CC3)CC2)c2cc(F)ccc21 [Example 38]
Response: 124 nM

Request: Note, next up: CCn1cc([C@H]2CC[C@H](N3CCN(c4cccc5[nH]ccc45)CC3)CC2)c2cc(C#N)ccc21 [Example 13b]
Response: 827 nM

###

Counter-ions that a name gives are not always drawn.
outcome-measure: melting point

Answered cases to consult:
compound: Cc1[nH]c2ccccc2c1[C@H]1CC[C@H](N2CCN(c3cccc4[nH]ccc34)CC2)CC1 (as salt: HCl)
outcome-measure: melting point
test-result: > 310 °C
--
compound: Fc1cccc2[nH]cc([C@H]3CC[C@@H](N4CCN(c5cccc6c5OCCO6)CC4)CC3)c12 (as salt: HCl) [Example 23a]
outcome-measure: melting point
test-result: 215 to 220 °C
--
compound: COc1ccccc1N1CCN([C@H]2CC[C@@H](c3c[nH]c4ncccc43)CC2)CC1 (as salt: HCl)
outcome-measure: melting point
test-result: 259 to 261 °C
--
compound: COc1cc(N2CCN([C@H]3CC[C@@H](c4cn(C)c5ccc(C#N)cc54)CC3)CC2)c2nccc(C)c2c1 [Example 51c]
outcome-measure: melting point
test-result: 210 to 212 °C
--
compound: COc1ccc(F)cc1N1CCN([C@H]2CC[C@@H](c3c[nH]c4ccc(F)cc43)CC2)CC1 (as salt: HCl) [Example 22a]
outcome-measure: melting point
test-result: 171 to 174 °C
--
compound: Fc1ccc2c(c1)[nH]cc2[C@H]1CC[C@H](N2CCN(c3cccc4c3OCCO4)CC2)CC1 (as salt: HCl) [Example 25b]
outcome-measure: melting point
test-result: 309 to 310 °C
--
compound: COc1cc(N2CCN([C@H]3CC[C@@H](c4cn(C)c5ccc(C#N)cc54)CC3)CC2)c2nc(C)ccc2c1 [Example 51a]
outcome-measure: melting point
test-result: 201 to 203 °C
--
compound: N#Cc1ccc2[nH]cc([C@H]3CC[C@H](N4CCN(c5cccc6ccoc56)CC4)CC3)c2c1 (as salt: HCl) (hydrate or solvate) [Example 34b]
outcome-measure: melting point
test-result: 330 to 331 °C
--
compound: Cn1cc([C@H]2CC[C@H](N3CCN(c4cccc5[nH]ccc45)CC3)CC2)c2cc(C#N)ccc21 (as salt: HCl) (hydrate or solvate) [Example 12b]
outcome-measure: melting point
test-result: 286 to 288 °C
--
compound: Fc1ccc2c(c1)[nH]cc2[C@H]1CC[C@H](N2CCN(c3cccc4[nH]ccc34)CC2)CC1 (as salt: HCl)
outcome-measure: melting point
test-result: 319 to 320 °C (dec.)

Request: Using the record for Clc1ccc2[nH]cc([C@H]3CC[C@H](N4CCN(c5cccc6[nH]ccc56)CC4)CC3)c2c1 (as salt: HCl) (hydrate or solvate) , report its melting point.
Response: 314 to 315.5 °C

Request: Note, next up: Fc1ccc2c(c1)[nH]cc2[C@H]1CC[C@@H](N2CCN(c3cccc4[nH]ccc34)CC2)CC1 (as salt: HCl)
Response: 250 to 252 °C (dec.)

Request: Note, next up: Cn1ccc2c(N3CCN([C@H]4CC[C@@H](c5cn(C)c6cc(F)ccc65)CC4)CC3)cccc21 (as salt: HCl) (hydrate or solvate)
Response: 253 to 254 °C
